# tested_target: BRG-1 (Homo sapiens, UniProt P51532)
# Construct: made in house; host or cells: High Five insect cells
# Sequence (P51532 whole entry): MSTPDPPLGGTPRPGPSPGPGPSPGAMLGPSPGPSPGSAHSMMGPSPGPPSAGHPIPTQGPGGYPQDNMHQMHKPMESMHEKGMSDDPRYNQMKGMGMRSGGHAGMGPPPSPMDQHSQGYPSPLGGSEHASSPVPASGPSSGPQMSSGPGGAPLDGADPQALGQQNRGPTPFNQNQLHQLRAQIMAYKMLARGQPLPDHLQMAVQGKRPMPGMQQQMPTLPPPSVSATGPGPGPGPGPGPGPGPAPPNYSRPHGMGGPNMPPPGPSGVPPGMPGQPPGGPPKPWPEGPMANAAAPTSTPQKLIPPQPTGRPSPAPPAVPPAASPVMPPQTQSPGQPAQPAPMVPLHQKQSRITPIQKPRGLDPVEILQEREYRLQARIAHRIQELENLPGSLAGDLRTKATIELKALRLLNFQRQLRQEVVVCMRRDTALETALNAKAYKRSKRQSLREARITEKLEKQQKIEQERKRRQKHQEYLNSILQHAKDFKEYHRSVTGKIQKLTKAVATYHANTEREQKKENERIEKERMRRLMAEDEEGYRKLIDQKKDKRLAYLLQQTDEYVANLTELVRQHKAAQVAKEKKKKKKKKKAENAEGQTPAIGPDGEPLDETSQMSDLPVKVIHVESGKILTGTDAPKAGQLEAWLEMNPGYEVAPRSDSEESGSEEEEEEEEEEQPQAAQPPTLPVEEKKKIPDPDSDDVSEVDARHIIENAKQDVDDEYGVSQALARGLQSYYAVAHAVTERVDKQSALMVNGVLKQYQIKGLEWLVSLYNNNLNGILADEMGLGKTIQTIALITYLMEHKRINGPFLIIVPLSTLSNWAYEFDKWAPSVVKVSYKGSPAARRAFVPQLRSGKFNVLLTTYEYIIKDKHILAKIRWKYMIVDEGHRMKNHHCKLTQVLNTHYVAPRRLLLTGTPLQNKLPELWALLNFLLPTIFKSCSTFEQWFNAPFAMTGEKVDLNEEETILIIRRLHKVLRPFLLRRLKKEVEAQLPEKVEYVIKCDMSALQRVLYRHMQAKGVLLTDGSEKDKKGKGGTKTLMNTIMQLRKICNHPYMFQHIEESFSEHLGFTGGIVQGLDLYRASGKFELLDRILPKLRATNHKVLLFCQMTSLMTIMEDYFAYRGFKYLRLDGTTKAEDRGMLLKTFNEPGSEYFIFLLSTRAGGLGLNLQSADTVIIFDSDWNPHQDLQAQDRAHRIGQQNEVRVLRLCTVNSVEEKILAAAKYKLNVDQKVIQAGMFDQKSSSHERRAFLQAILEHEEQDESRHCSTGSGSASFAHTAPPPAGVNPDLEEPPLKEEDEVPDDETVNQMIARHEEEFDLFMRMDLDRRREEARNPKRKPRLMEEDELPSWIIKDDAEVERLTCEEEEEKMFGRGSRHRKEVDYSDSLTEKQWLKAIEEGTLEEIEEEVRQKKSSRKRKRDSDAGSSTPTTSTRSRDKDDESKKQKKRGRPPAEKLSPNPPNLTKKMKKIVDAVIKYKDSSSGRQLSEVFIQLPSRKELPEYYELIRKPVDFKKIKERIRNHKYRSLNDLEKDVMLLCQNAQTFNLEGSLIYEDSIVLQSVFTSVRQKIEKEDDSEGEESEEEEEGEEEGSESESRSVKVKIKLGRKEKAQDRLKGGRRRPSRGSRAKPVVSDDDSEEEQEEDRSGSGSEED
# test_name: ATPase catalytic activity of BRG-1, ADP-Glo in vitro biochemical assay
# condition_parameters: ATPase catalytic activity, ADP-Glo; 30 nM BRG-1, 400 μM ATP; read-out: BRG1 IC50
pIC50: −log10 of the molar value.
Note to self: values exactly at 7 are 1.0. So pIC50 at or above 7 is 1.0, below is 0.0.

Past entries and their recorded results:
[[record]]
compound = "COC1CCN(c2ccc3cnc(CNC(=O)c4ccc5c(c4)S(=O)(=O)CCOC5)cc3n2)c2ncccc21 (stereo not shown)"
assigned_class = 0.0

[[record]]
compound = "CCOc1nc(-c2ccc3cnc(CNC(=O)c4ccc5c(c4)S(=O)(=O)CCOC5)cc3n2)ccc1C(F)F"
assigned_class = 0.0

[[record]]
compound = "CCO[C@H]1CCS(=O)(=O)c2cc(C(=O)NCc3cc4nc(-c5cccc(N6C[C@@H](C)O[C@@H](C)C6)n5)ccc4cn3)ccc2C1"
assigned_class = 0.0


Please tell me: is the compound C[C@H]1Cc2ccc(-c3ccc4cnc(CNC(=O)c5ccc6c(c5)S(=O)(=O)CCOC6)cc4n3)nc2N(C)C1 at or over 7 in terms of pIC50?
0.0

Hello, I need to know if COCc1cc2c(nc1Cl)N(c1ccc3cnc(CNC(=O)c4ccc5c(c4)S(=O)(=O)CCOC5)cc3n1)CCC2 has measured pIC50 not below 7. Thanks!
1.0

###

Here, each record is paired with measured IC50 data.
# tested_target: BRG-1 (Homo sapiens)
# Construct: made in house; host or cells: High Five insect cells
# test_name: ATPase catalytic activity of BRG-1, ADP-Glo in vitro biochemical assay
# condition_parameters: ATPase catalytic activity, ADP-Glo; 30 nM BRG-1, 400 μM ATP; read-out: BRG1 IC50
Entry rule: numbers only, all in nM.

// known answers, use as guide
[[record]]
compound = "COCCN1c2cccc(-c3ccc4cnc(CNC(=O)c5ccc6c(c5)S(=O)(=O)CCOC6)cc4n3)c2OCC1C (stereo not drawn)"
recorded_number = 81

[[record]]
compound = "CN1CC[C@H](Oc2cccc(-c3ccc4cnc(CNC(=O)c5ccc6c(c5)S(=O)(=O)CCOC6)cc4n3)n2)C1"
recorded_number = 4320

[[record]]
compound = "COCCN1CCOc2c(-c3ccc4cnc(CNC(=O)c5ccc6c(c5)S(=O)(=O)CCOC6)cc4n3)ccc(F)c21"
recorded_number = 60.9

[[record]]
compound = "C[C@@H]1CN(c2cccc(-c3ccc4cnc(CNC(=O)c5ccc(CC(C)(F)F)c(S(C)(=O)=O)c5)cc4n3)n2)C[C@H](C)O1"
recorded_number = 4690

[[record]]
compound = "CO[C@@H](C)Cn1ccc2c(-c3ccc4cnc(CNC(=O)c5ccc6c(c5)S(=O)(=O)CCOC6)cc4n3)ccnc21"
recorded_number = 491

[[record]]
compound = "C[C@@H]1CN(c2cccc(-c3ccc4cnc(CNC(=O)c5ccc6c(c5)S(=O)(=O)[C@@H](C)CO6)cc4n3)n2)C[C@H](C)O1"
recorded_number = 360

[[record]]
compound = "O=C(NCc1cc2nc(N3CCCc4cc(N5CCC5)cnc43)ccc2cn1)c1ccc2c(c1)S(=O)(=O)CCOC2"
recorded_number = 268

[[record]]
compound = "Cc1ccc2c(n1)N(c1ccc3cnc(CNC(=O)c4ccc5c(c4)S(=O)(=O)CCCO5)cc3n1)CCC2"
recorded_number = 1670


# context switch: different compound, same IC50
Given COc1cc2c(nc1C)N(c1ccc3cnc(CNC(=O)c4ccc5c(c4)S(=O)(=O)CCOC5)cc3n1)CCC2 , state its recorded IC50.
158

###

The molecules listed here are annotated with their Ratio* (BRG1 IC50 (μM) divided by BRM IC50 (μM)).
# tested_target: BRM (Homo sapiens, UniProt P51531)
# Construct: made in house; host or cells: High Five insect cells
# Sequence (P51531 whole entry): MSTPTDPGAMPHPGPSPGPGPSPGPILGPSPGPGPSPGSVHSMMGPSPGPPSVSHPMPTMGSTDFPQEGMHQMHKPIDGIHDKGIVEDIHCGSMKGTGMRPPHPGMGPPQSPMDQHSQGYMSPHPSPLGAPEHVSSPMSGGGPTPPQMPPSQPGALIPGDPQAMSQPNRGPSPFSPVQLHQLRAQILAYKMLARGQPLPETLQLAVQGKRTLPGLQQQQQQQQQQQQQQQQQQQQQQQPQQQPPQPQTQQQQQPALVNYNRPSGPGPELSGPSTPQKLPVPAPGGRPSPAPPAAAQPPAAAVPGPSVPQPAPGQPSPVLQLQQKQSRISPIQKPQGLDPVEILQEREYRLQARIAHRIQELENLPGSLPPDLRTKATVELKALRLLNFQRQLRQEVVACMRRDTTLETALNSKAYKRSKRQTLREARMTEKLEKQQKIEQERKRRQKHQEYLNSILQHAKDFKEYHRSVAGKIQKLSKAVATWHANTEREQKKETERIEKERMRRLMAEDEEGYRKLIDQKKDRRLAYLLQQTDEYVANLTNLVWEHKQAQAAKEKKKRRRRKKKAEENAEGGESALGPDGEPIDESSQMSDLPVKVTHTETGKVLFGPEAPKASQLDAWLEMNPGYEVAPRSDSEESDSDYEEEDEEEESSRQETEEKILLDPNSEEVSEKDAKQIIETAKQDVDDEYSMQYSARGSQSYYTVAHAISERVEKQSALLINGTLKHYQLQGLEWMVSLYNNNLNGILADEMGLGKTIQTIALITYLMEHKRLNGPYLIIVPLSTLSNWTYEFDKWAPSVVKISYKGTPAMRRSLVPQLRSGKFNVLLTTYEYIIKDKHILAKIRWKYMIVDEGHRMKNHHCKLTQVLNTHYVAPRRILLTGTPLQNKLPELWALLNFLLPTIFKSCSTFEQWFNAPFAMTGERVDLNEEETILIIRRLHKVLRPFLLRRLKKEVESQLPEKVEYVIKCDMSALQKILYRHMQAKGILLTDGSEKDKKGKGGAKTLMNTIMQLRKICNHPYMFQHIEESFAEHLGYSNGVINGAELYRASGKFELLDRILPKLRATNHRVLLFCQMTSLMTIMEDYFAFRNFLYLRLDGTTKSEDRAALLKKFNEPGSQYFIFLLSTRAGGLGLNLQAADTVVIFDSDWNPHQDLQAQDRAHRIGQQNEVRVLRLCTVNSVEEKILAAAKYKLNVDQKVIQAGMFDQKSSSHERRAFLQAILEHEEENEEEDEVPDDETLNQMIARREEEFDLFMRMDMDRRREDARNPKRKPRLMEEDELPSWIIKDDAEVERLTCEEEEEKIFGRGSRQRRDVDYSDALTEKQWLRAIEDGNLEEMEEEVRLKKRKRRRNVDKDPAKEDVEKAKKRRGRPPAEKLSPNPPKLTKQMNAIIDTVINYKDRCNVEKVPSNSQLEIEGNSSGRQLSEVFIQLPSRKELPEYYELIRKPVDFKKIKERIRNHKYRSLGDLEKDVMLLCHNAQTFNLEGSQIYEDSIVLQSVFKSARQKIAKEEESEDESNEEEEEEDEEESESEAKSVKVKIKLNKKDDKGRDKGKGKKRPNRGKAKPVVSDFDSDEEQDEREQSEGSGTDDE
# test_name: ATPase catalytic activity of BRM, ADP-Glo in vitro biochemical assay
# condition_parameters: selectivity ratio BRG1 IC50 / BRM IC50
// no unit string in output, number only

[[record]]
molecule = "CCS(=O)(=O)c1cc(C(=O)NCc2cc3nc(-c4cncc(C5CC5)n4)ccc3cn2)ccc1C"
recorded_number = 15.55

[[record]]
molecule = "COC[C@@H](C)N(C)c1cccc(-c2ccc3cnc(CNC(=O)c4ccc5c(c4)S(=O)(=O)CCOC5)cc3n2)n1"
recorded_number = 5.48

[[record]]
molecule = "CS(=O)(=O)c1cc(C(=O)NCc2cc3nc(-c4cccc(N5CC[C@@H]6COCC6C5)n4)ccc3cn2)ccc1C(F)F (stereo partly shown)"
recorded_number = 14.43

[[record]]
molecule = "O=C(NCc1cc2nc(-c3cccc(N4CCOCC4)n3)ccc2cn1)c1ccc2c(c1)S(=O)(=O)CCOC2"
recorded_number = 12.29


Fill blank: measured Ratio* (BRG1 IC50 (μM) divided by BRM IC50 (μM)) of the molecule Cc1cc2c(-c3ccc4cnc(CNC(=O)c5ccc6c(c5)S(=O)(=O)CCOC6)cc4n3)ccnc2n1C is ____.
12.92

Query: Ratio* (BRG1 IC50 (μM) divided by BRM IC50 (μM)); subject: O=C(NCc1cc2nc(-c3cccc(Cl)c3)ccc2cn1)c1ccc2c(c1)S(=O)(=O)CCOC2
18.63

What Ratio* (BRG1 IC50 (μM) divided by BRM IC50 (μM)) value was documented for this molecule, O=C(NCc1cc2nc(-c3cccc(C4(C(F)F)CC4)n3)ccc2cn1)c1ccc2c(c1)S(=O)(=O)CCOC2 ?
8.84

Look up Ratio* (BRG1 IC50 (μM) divided by BRM IC50 (μM)) for this molecule: O=C(NCc1cc2nc(-c3cccc(N4CCCC(F)(F)C4)n3)ccc2cn1)c1ccc2c(c1)S(=O)(=O)CCOC2
2.91

Query (molecule): C[C@@H]1CN(c2cccc(-c3ccc4cnc(CNC(=O)c5ccc6c(c5)S(=O)(=O)CCOC6)cc4n3)n2)CCO1 ; field requested: Ratio* (BRG1 IC50 (μM) divided by BRM IC50 (μM))
6.29

Could you tell me which Ratio* (BRG1 IC50 (μM) divided by BRM IC50 (μM)) is on file for COc1cccc(-c2ccc3cnc(CNC(=O)c4ccc5c(c4)S(=O)(=O)CCOC5)cc3n2)c1 ?
14.36

Report Ratio* (BRG1 IC50 (μM) divided by BRM IC50 (μM)) for O=C(NCc1cc2nc(-c3cccc([C@@H]4CC4(F)F)n3)ccc2cn1)c1ccc2c(c1)S(=O)(=O)CCOC2 please.
12.44

Request the reported Ratio* (BRG1 IC50 (μM) divided by BRM IC50 (μM)) associated with Cc1ccc(C(=O)NCc2cc3nc(-c4cncc(C5CC5)n4)ccc3cn2)cc1S(C)(=O)=O
11.32

Look up Ratio* (BRG1 IC50 (μM) divided by BRM IC50 (μM)): Cn1ccc2c(-c3ccc4cnc(CNC(=O)c5ccc6c(c5)S(=O)(=O)CCOC6)cc4n3)cccc21
9.42

Record request: Ratio* (BRG1 IC50 (μM) divided by BRM IC50 (μM)) value, item O=C(NCc1cc2nc(-c3cccc(F)n3)ccc2cn1)c1ccc2c(c1)S(=O)(=O)CCOC2
8.82

Consider the molecule shown here: CN(C)[C@@H]1CCN(c2cccc(-c3ccc4cnc(CNC(=O)c5ccc6c(c5)S(=O)(=O)CCOC6)cc4n3)n2)CC1(F)F What is its recorded Ratio* (BRG1 IC50 (μM) divided by BRM IC50 (μM))?
7.89

Fill in: Ratio* (BRG1 IC50 (μM) divided by BRM IC50 (μM)) of O=C(NCc1cc2nc(-c3cccc(N4CCCOCC4)n3)ccc2cn1)c1ccc2c(c1)S(=O)(=O)CCOC2 is ___
10.42

Record request: Ratio* (BRG1 IC50 (μM) divided by BRM IC50 (μM)) value, item O=C(NCc1cc2nc(-c3cccc(N4CC[C@H](F)C4)n3)ccc2cn1)c1ccc2c(c1)S(=O)(=O)CCOC2
14.09

Fill blank: measured Ratio* (BRG1 IC50 (μM) divided by BRM IC50 (μM)) of the molecule CS(=O)(=O)c1cc(C(=O)NCc2cc3nc(-c4cncc(C5CC5)n4)ccc3cn2)ccc1C1CC1 is ____.
6.11

I am curious: what Ratio* (BRG1 IC50 (μM) divided by BRM IC50 (μM)) value has been reported for O=C(NCc1cc2nc(-c3cccc(C4(CF)CC4)n3)ccc2cn1)c1ccc2c(c1)S(=O)(=O)CCOC2 ?
10.48

Requested read-out: Ratio* (BRG1 IC50 (μM) divided by BRM IC50 (μM)). Entry: O=C(NCc1cc2nc(-c3cccc(C4CC4)n3)cnc2cn1)c1ccc2c(c1)S(=O)(=O)CCOC2
19.73

Reported Ratio* (BRG1 IC50 (μM) divided by BRM IC50 (μM)) for O=C(NCc1cc2nc(-c3cccc(C4=CCOCC4)n3)ccc2cn1)c1ccc2c(c1)S(=O)(=O)CCOC2 : what is it?
11.33

I'd like to know its Ratio* (BRG1 IC50 (μM) divided by BRM IC50 (μM)). The molecule in question is O=C(NCc1cc2nc(-c3cccc(C4CC4)n3)ccc2cn1)c1ccc2c(c1)S(=O)(=O)CCOC2
25.10

Reported Ratio* (BRG1 IC50 (μM) divided by BRM IC50 (μM)), molecule O=C(NCc1cc2nc(N3CCCc4ncccc43)ccc2cn1)c1ccc2c(c1)S(=O)(=O)CCOC2 : ____
5.25

Query (molecule): C[C@@H]1CN(c2nccc(-c3ccc4cnc(CNC(=O)c5ccc(C(F)F)c(S(C)(=O)=O)c5)cc4n3)n2)C[C@H](C)O1 ; field requested: Ratio* (BRG1 IC50 (μM) divided by BRM IC50 (μM))
21.99
